Assay: blockers of RIG-like receptor reporter activation – cell-based, Sendai virus stimulus, luciferase, 10K MLSCN set, TLR/RLR signaling modifier project, primary screen (AID 602276);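 also: firefly luciferase from ISG56 promoter only with Renilla not read in this screen; 0% = Sendai virus plus DMSO and 100% = medium plus DMSO without virus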
Details: HEK293 RL24 IRF3 luciferase reporter, at 10 µM, hits give high values
Listing of entries alongside the reported inhibition.
readout type: inhibition (%)

In [3]: df
Out[3]:
                                    compound  result_number
 0  CCOCC(=O)NC1CCSC1=O (stereo unspecified)           18.6
 1          COc1ccccc1/C=C1/C(=N/O)C2CCN1CC2           9.04
 2  O=C(c1ccc(CS(=O)(=O)c2ccccc2)o1)N1CCC2(CC1)OCCO2          -15.4
 3  Cc1ccc(S(=O)(=O)Cc2ccc(C(=O)N3CCC4(CC3)OCCO4)o2)cc1          -7.38
 4            CCN1CCN(c2ncnc3ccc(Br)cc23)CC1           13.3
 5   O=C(CCCOc1ccc(Cl)cc1Cl)N1CCC2(CC1)OCCO2           -4.5
 6  Cn1c(=O)cc(OCC(=O)N2CCN(C3CCCCC3)CC2)c2ccccc21           2.25
 7  O=C(C1CCCN(c2nnc(-n3cccc3)s2)C1)N1CCC2(CC1)OCCO2 (stereo unspecified)          -2.39
 8  CCC(C(=O)N1CCC2(CC1)OCCO2)c1ccccc1 (stereo unspecified)           14.2
 9  O=C(NC1(C(F)(F)F)Oc2ccc(Cl)cc2O1)N1CCC2(CC1)OCCO2 (stereo unspecified)           8.96
10  CCOc1ccc(-n2c(O)c(C=NCCN(CC)CC)c(=O)[nH]c2=O)cc1          0.257

Attribution: PubChem BioAssay
